test: Cell Viability - Mesenchymal (AID 546); conditions: mesenchymal cells viability, qHTS; series mostly up to 91.7 µM;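 note: cells exposed to compound for 40 hours before reading; 0% = DMSO only and -100% = 100 µM tamoxifen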
Inconclusive results are not listed. Active and inactive are the calls of the source. Calls come from the whole dose curve; as a rule, active = well fitted cell-killing curve with a large enough effect; inconclusive = small, poorly fitted or top-dose-only effect; inactive = flat fitted curve, though single readings scatter.
Quantity Measured: outcome

Here are 8 compounds together with their reported answers.
Mol | Recorded Result
[O]=[Cd] | inactive
O=C1CCO1 | inactive
O=C1C=CC(=O)C=C1 | inactive
O=C/C=C/c1ccccc1 | inactive
C[C@]12CCC(=O)C[C@@H]1CC[C@@H]1[C@@H]2CC[C@]2(C)[C@@H](O)CC[C@@H]12 | inactive
CC(C)CCON=O | inactive
CCCCCl | inactive
Clc1ccccc1Cl | inactive

Query string: # outcome lookup, item O=[N+]([O-])c1ccccc1
Result string: inactive

Query string: # outcome lookup, item O=Cc1ccco1
Result string: inactive

Query string: # outcome lookup, item NNC(N)=O
Result string: inactive

Query string: # outcome lookup, item ClC(Cl)(Cl)Cl
Result string: inactive

Query string: # outcome lookup, item O=CC=O
Result string: inactive

Query string: # outcome lookup, item CC(C)(C)c1cc(O)ccc1O
Result string: inactive

Query string: # outcome lookup, item S=C=S
Result string: inactive

###

tested on: HEK293; assay: Cytotoxic Profiling of Annotated Libraries Using Quantitative High-Throughput Screening (AID 1296008); conditions: Five cell lines viability, CellTiter-Glo ATP luminescence, 48-72 h; note: nearly all actives have a fitted effect of over 60% in size
Inconclusive results are not listed. Activity calls are given as the source filed them. Calls come from the whole dose curve; as a rule, active = well fitted inhibition curve with a large enough effect; inconclusive = small, poorly fitted or top-dose-only effect; inactive = flat fitted curve, though single readings scatter.
// classify into active, inactive

Example entries begin here.
Compound | Qualitative Label
C[C@@]12C[C@@H](c3ccoc3)OC(=O)C1CC[C@]1(C)[C@H]2[C@H]2C=C[C@]1(O)C(=O)O2 (stereo not given in full) | inactive
COC1CC(O[C@H]2CC[C@]3(C=O)C4CC[C@]5(C)[C@@H](C6=CC(=O)OC6)CC[C@]5(O)[C@@H]4CC[C@]3(O)C2)OC(C)C1O[C@@H]1O[C@H](CO)[C@@H](O)[C@H](O)[C@H]1O (stereo not given in full) | active

Query string: In this assay, the call recorded for C=CC(C)(C)c1[nH]c2cccc3c2c1C[C@@H]1[C@@H]3[C@@H](OC(C)=O)[C@H](C)CN1C was what?
Result string: inactive

Query string: In this assay, the call recorded for CC(CCc1ccc(O)cc1)O[C@@H]1O[C@H](CO[C@H]2OC[C@](O)(CO)[C@H]2O)[C@@H](O)[C@H](O)[C@H]1O (stereo not given in full) was what?
Result string: inactive

Query string: In this assay, the call recorded for CC1=C2C[C@H]3[C@@H](CC=C4C[C@@H](O)CC[C@@]43C)[C@@H]2CC[C@]12O[C@@H]1C[C@H](C)CN[C@H]1[C@H]2C was what?
Result string: inactive

###

biological target: Catechol O-methyltransferase (Homo sapiens) (UniProt P21964); experiment: Confirmatory Screen for Target Class Profiling of Small Molecule Inhibitors of Methyltransferases (AID 1745852); conditions: MTase-Glo luminescence, SAH detection, recombinant enzyme; measured here: COMT max response; stronger effect = lower value
Sequence (P21964 whole entry, looked up): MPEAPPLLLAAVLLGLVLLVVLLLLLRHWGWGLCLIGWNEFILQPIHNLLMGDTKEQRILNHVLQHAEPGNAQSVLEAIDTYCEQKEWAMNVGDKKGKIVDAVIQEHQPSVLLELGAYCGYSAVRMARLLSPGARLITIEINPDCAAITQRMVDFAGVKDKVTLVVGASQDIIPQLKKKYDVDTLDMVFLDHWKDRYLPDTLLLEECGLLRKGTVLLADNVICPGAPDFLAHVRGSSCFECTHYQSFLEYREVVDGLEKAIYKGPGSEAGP
Quantity Measured: activity (%)
Give just the number in %; leave the unit off.

Here are 5 compounds together with their reported answers.
Compound | Target Or System | activity (%)
CN1CC[C@@]2(C)c3cc(O)ccc3N(C)C12 (stereo partly specified) | Catechol O-methyltransferase (Homo sapiens) (UniProt P21964) | -27.2
CCCN(CCC)CCc1ccc(O)c(O)c1 | Catechol O-methyltransferase (Homo sapiens) (UniProt P21964) | 153
NC(=O)CI | Catechol O-methyltransferase (Homo sapiens) (UniProt P21964) | -3.06
CCCCCOc1cc2c(cc1-c1cc(/C=C/C(=O)O)ccc1O)C(C)(C)CCC2(C)C | Catechol O-methyltransferase (Homo sapiens) (UniProt P21964) | -5.76
NCC(O)c1cc(O)c(O)cc1F (stereo unspecified) | Catechol O-methyltransferase (Homo sapiens) (UniProt P21964) | 129

Query string: # activity lookup, item COc1cc(C(=O)O[C@H]2[C@@H]3C=CO[C@@H](O[C@@H]4O[C@H](CO)[C@@H](O)[C@H](O)[C@H]4O)[C@@H]3[C@@]3(CO)O[C@@H]23)ccc1O
Result string: -83.5

###

assay: qHTS to identify inhibitors of the type 1 interferon - major histocompatibility complex class I in skeletal muscle: primary screen against the NCATS LOPAC collection (AID 1347405); settings: iHSKM muscle cells, IFN-b-induced MHC-I HiBiT luminescence, 24 h; series mostly up to 45.9 µM;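 note: human myoblasts with HiBiT tag on endogenous HLA-B stimulated by IFN-beta; lytic HiBiT luminescence reporting HLA-B protein level; % is set by controls: 0 for no effect and ±100 for the full control effect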
Records with an inconclusive call do not appear. Calls of active or inactive are those of the source. Calls follow the shape of the dose curve; as a rule, active = well fitted inhibition curve with a large enough effect; inconclusive = small, poorly fitted or top-dose-only effect; inactive = flat fitted curve, though single readings scatter.
// classify into active, inactive

Example entries begin here.
Molecule | Qualitative Label
Cc1o[nH]c(=O)c1CC(N)C(=O)O (configuration not stated) | inactive
OC1CCCCC1N1CCC(c2ccccc2)CC1 (configuration not stated) | inactive
CP(=O)(O)C1=CCNCC1 | inactive

Query string: In this assay, the call recorded for CC(Cc1ccc(OCC(=O)O)cc1)NCC(O)c1cccc(Cl)c1 (configuration not stated) was what?
Result string: inactive

Query string: In this assay, the call recorded for CC12NC(Cc3ccccc31)c1ccccc12 (configuration not stated) was what?
Result string: inactive

Query string: In this assay, the call recorded for Nc1ccc(CCN2CCN(c3cccc(C(F)(F)F)c3)CC2)cc1 was what?
Result string: inactive

Query string: In this assay, the call recorded for CN1CCc2cccc(Cl)c2CC1 was what?
Result string: inactive

Query string: In this assay, the call recorded for COc1ccc(OC)c(C(O)C(C)N)c1 (configuration not stated) was what?
Result string: inactive

Query string: In this assay, the call recorded for CC(N)[C@H](O)c1ccc(O)c(O)c1 (some centres not stated) was what?
Result string: inactive

###

assay: qHTS assay for small molecule activators of the p53 signaling pathway (AID 651743); details: HCT-116 p53RE-bla, beta-lactamase FRET ratio, 16 h; stronger effect = higher value; note: % of control where 0% means no effect
Inconclusive results are not listed.
The following molecules are listed with their measured activation values.
Give just the number in %; leave the unit off.

Here are 3 molecules together with their reported answers.
Molecule | Quantity Measured | Recorded Result
CC(C)CCON=O | activation | -3.9
O=C(NCNC(=O)NC1C(=O)NC(=O)N1CO)NC1C(=O)NC(=O)N1CO (stereo unspecified) | activation | -1.04
COCC(C)N(C(=O)CCl)c1c(C)csc1C (stereo unspecified) | activation | -0.528

Query string: # activation lookup, item S=C=S
Result string: -0.789

Query string: # activation lookup, item COC1=CC(=O)O[C@@H](/C=C/c2ccccc2)C1
Result string: -5.52

Query string: # activation lookup, item O=Cc1ccco1
Result string: -1.55

Query string: # activation lookup, item O=C(O)c1cc[c]([Hg][Cl])cc1
Result string: 10.2

Query string: # activation lookup, item ClCC1CO1 (stereo unspecified)
Result string: -3.68

Query string: # activation lookup, item [Cl-].[Cl-].[Hg+2]
Result string: 5.15

Query string: # activation lookup, item C#CCN1CC(=O)N(COC(=O)C2C(C=C(C)C)C2(C)C)C1=O (stereo unspecified)
Result string: -4.17

Query string: # activation lookup, item CCCCCl
Result string: -4.24

###

The following compounds are listed with their measured viability change values.
test: Nrf2 qHTS screen for inhibitors: Validation (AID 493153); conditions: A549 ARE-Fluc reporter, 18-24 h; measured here: cytotoxicity max response
Results filed as inconclusive are left out.
Give just the number in %; leave the unit off.

Here are 3 compounds together with their reported answers.
Compound | Unit Of Measurement | viability change
C=CCN1C[C@@H](C)N([C@H](c2ccc(C(=O)N(CC)CC)cc2)c2cccc(OC)c2)C[C@@H]1C | % | 4.14
CN1CCc2cc(O)cc3c2[C@H]1Cc1ccc(O)c(O)c1-3 | % | -1.2
C[N+]1(C)CCOC(O)(c2ccc(-c3ccc(C4(O)C[N+](C)(C)CCO4)cc3)cc2)C1 (centres undefined) | % | -1.71

Query string: # viability change lookup, item C[C@H](Cc1ccc2c(c1)OC(C(=O)O)(C(=O)O)O2)NC[C@H](O)c1cccc(Cl)c1
Result string: 0.983

Query string: # viability change lookup, item COc1ccc(OC)c(C(O)C(C)N)c1 (centres undefined)
Result string: -6.5

Query string: # viability change lookup, item Cc1[nH]c2ccc(O)cc2c1CCN
Result string: -7.71

###

test system: NIH3T3; assay: Cytotoxic Profiling of Annotated Libraries Using Quantitative High-Throughput Screening (AID 1296008); settings: Five cell lines viability, CellTiter-Glo ATP luminescence, 48-72 h; stronger effect = lower value; note: nearly all actives have a fitted effect of over 60% in size; for max response: % is set by controls: 0 for no effect and ±100 for the full control effect
Inconclusive results are not listed. Calls of active or inactive are those of the source. The call rests on the fitted dose curve; in most records, active means well fitted inhibition curve with a large enough effect; inconclusive means small, poorly fitted or top-dose-only effect; inactive means flat fitted curve, though single readings scatter.
The following compounds are listed with their measured max response values.

Compound | Target Or System | max response
Cn1ncnc1COc1nn2c(-c3c(F)cccc3F)nnc2cc1C1CCC1 | NIH3T3 | 2.04% (inactive)
C=C(C)[C@H]1O[C@H]2CC[C@@]3(C)[C@@](O)(CC[C@H]4[C@@H]5OC(C)(C)[C@H]6C[C@@H]7C(=C)Cc8c(Cl)cc9[nH]c(c5c9c8[C@@]76O)[C@@]43C)[C@]23O[C@@H]3[C@H]1O | NIH3T3 | -2.87% (inactive)
COC(=O)[C@@]12C(=O)C(C)C(=O)[C@]1(C)C(C)=C[C@H]1[C@]3(C=O)CC[C@H](OC(C)=O)C(C)(C)[C@H]3CC[C@@]12C (stereo partly specified) | NIH3T3 | 3.28% (inactive)
COC(=O)C1(C)CCC(O)C2(C)c3c(O)cc(C(C)C)cc3C(O)C(OC(C)=O)C12 (stereo unspecified) | NIH3T3 | 0.503% (inactive)
CCc1c(C(=O)C(N)=O)c2c(OCC(=O)OC)cccc2n1Cc1ccccc1 | NIH3T3 | -0.844% (inactive)

Query string: # max response lookup, item CC(CCc1ccc(O)cc1)O[C@@H]1O[C@H](CO[C@H]2OC[C@](O)(CO)[C@H]2O)[C@@H](O)[C@H](O)[C@H]1O (stereo partly specified)
Result string: 3.14% (inactive)
